Each entry below carries its recorded OD450.
target: T1, human MSLN-R3-his protein (human, UniProt Q13421 487-598); assay: ELISA on coated MSLN-R3; no antibody (blank)
T1 construct: Region 3 of human mesothelin, made in HEK293E cells, His-tagged; also called human MSLN-R3 protein; hMSLN-R3-his; not shown: His tag
T1 sequence (Q13421 495-606): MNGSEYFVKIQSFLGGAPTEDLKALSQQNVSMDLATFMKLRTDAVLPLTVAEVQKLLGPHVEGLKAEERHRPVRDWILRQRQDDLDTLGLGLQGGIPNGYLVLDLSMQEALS
reported.endpoint: OD450 (OD450)

binder	value.reported
Tab106 (YP218, hIgG1) (antibody, V domains shown, also called YP218 human IgG1 antibody) VH: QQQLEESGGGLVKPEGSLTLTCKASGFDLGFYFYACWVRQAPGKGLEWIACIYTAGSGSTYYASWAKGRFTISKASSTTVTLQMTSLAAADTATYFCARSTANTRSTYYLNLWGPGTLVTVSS VL: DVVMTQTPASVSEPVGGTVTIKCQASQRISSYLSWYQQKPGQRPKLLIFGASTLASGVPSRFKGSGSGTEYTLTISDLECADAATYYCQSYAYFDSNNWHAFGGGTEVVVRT	0.04
S009-F8-19.21 (antibody, human IgG1, kappa, V domains shown) VH: EFQLQQSGPELVKPGASVKISCKTSGYSFTDYNMNWVKQSNGKSLEWIGVINPNYGTTGYNQKFKGKATLTVDQSSSTAYMQLNSLTSEDSAVYYCARGGYDGEAMDYWGHGTSVTVSS VL: QIVLTQSPAIMSASPGEKVTMTCSASSSVNYMHWYQQKSGTSPKRWIYDTSKLASGVPARFSGSGSGTSYSLTISSMEAEDAATYYCQQWSSYPPTFGGGTKLEIKR	0.05
S009-F8-8.22 (antibody, human IgG1, kappa, V domains shown) VH: EVQLQQSGPELVKPGASVKMSCKASGYTFTDYIIHWVKQSHGKSLEWIAYIFPNNGGTGYNQKFRGKATLTVNKSSSTAYMELRSLTSEDSAVYYCARWRLRQYFDVWGTGTTVTVSS VL: DIVMTQSQKFMSTIVGDRVSITCKASQNVGTAVAWYQQKPGQSPKLLIYSASNRYTGVPDRFTGSGSGTDFTLTISNMQSEDLADYFCQQYSSYPLTFGGGTKLEIKR	0.04
S009-F8-29.1 (antibody, human IgG1, kappa, V domains shown) VH: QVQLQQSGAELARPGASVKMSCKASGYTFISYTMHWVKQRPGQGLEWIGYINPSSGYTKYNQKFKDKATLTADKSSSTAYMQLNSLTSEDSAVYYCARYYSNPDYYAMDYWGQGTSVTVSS VL: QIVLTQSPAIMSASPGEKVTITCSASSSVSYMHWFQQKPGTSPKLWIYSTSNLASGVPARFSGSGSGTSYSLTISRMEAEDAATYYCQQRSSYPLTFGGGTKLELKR	0.04
S009-F8-22.23 (antibody, human IgG1, kappa, V domains shown) VH: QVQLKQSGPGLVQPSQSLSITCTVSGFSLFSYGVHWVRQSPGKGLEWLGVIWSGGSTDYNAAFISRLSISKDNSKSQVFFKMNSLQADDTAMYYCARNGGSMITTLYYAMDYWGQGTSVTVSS VL: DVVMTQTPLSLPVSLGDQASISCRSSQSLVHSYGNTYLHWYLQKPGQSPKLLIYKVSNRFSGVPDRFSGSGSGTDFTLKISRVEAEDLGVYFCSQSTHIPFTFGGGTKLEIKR	0.04
